// provenance: patent US20060069132A1

tested on: corn; test: Test B pre-/postemergence herbicide test; format: in vivo, Zea mays; details: postemergence, 125 g ai/ha; visual rating, scale 0 (no effect) to 100 (complete control)
property_measured: Corn plant response rating
Give bare numbers.

CCOC(=O)c1cccc(NC(=O)c2cc(C(C)(C)C)nn2CC)c1C	10
CCn1nc(C(C)(C)C)cc1C(=O)Nc1cc(C(=O)N(C)C)c(F)cc1F	0

Below are 2 molecules. Give each one its Corn plant response rating.
1. CCc1nc(C(C)(C)C)sc1C(=O)Nc1cc(C(=O)N(CC)CC)ccc1F
2. CCNC(=O)c1cccc(NC(=O)c2sc(C(C)(C)C)nc2CC)c1

1. 10
2. 20

Required: Corn plant response rating, one value per molecule below.
1. CCOC(=O)c1ccc(F)c(NC(=O)c2cc(C(C)(C)C)nn2CC)c1
2. CCOC(=O)c1cccc(NC(=O)c2cc(C(C)(C)C)nn2CC)c1OC
3. CCCN1CCc2c(NC(=O)c3cc(C(C)(C)C)nn3CC)cccc2C1=O
4. COC(=O)c1cccc(NC(=O)c2sc(C(C)(C)C)nc2C)c1
5. CCN(CC)C(=O)c1cccc(NC(=O)c2nn(C(C)(C)C)cc2Br)c1

[20, 0, 20, 10, 10]
